This listing pairs molecules with measured pIC50.
Target: Cyclin-dependent kinase 2/cyclin A (Homo sapiens, UniProt P24941)
Test: Inhibition of human recombinant CDK2/cyclin A expressed in baculovirus-infected insect Sf21 cells after 10 mins
// returns pIC50 (minus log10 of molar concentration), number only

Worked set:
CC1=C(C(=O)Nc2cccc([N+](=O)[O-])c2)C(c2ccc(O)cc2O)NC(N/N=C/c2ccco2)=N1 (centres undefined)	5.42
Cc1ccc(NC(=O)c2c(C)nc(S(=O)(=O)Cc3ccccc3)nc2-c2ccc(O)cc2O)cc1	4.32

Okay, now this molecule:
q: Please indicate pIC50 recorded for CC1=C(C(=O)Nc2cccc([N+](=O)[O-])c2)C(c2ccc(O)cc2O)NC(Nc2ccc([N+](=O)[O-])cc2Cl)=N1 (centres undefined)
a: 5.09

###

This listing pairs compounds with measured pIC50.
Biological target: Cyclin-dependent kinase 2/cyclin A (Homo sapiens)
Assay: Inhibition of human recombinant CDK2/cyclin A expressed in baculovirus-infected insect Sf21 cells after 10 mins
// returns pIC50 (minus log10 of molar concentration), number only

Worked set:
CC1=C(C(=O)Nc2cccc([N+](=O)[O-])c2)C(c2ccc(O)cc2O)NC(NN2C(=O)/C(=C\c3ccccc3)SC2=S)=N1 (centres undefined)	4.55
CC1=C(C(=O)Nc2cccc([N+](=O)[O-])c2)C(c2ccc(O)cc2O)NC(N/N=C/c2cccs2)=N1 (centres undefined)	4.64
CC1=C(C(=O)Nc2cccc([N+](=O)[O-])c2)C(c2ccc(O)cc2O)NC(NN2C(=O)/C(=C\c3cccs3)SC2=S)=N1 (centres undefined)	6.52

Okay, now this compound:
q: Please indicate pIC50 recorded for CC1=NN(C2=NC(C)=C(C(=O)Nc3cccc([N+](=O)[O-])c3)C(c3ccc(O)cc3O)N2)C(=O)/C1=C/c1ccco1 (centres undefined)
a: 4.99

###

This listing pairs molecules with measured log10 of GI50.
System: A-431
Assay: Growth inhibition of human A431 cells after 2 days by sulforhodamine B assay
Type: functional
Settings: A-431, 48 h
All values: base-10 log of GI50 in µM.

CC1=C(C(=O)Nc2cccc([N+](=O)[O-])c2)C(c2ccc(O)cc2O)NC(NCc2ccccc2)=N1 (stereo unspecified)	1.55
CC1=C(C(=O)Nc2cccc([N+](=O)[O-])c2)C(c2ccc(O)cc2O)NC(Nc2ccc([N+](=O)[O-])cc2Cl)=N1 (stereo unspecified)	0.60
CC1=C(C(=O)Nc2ccc(C)cc2)C(c2ccc(O)cc2O)NC(NCc2ccccc2)=N1 (stereo unspecified)	1.63

q: Please indicate log10 of GI50 recorded for CC1=C(C(=O)Nc2cccc([N+](=O)[O-])c2)C(c2ccc(O)cc2O)NC(Nc2ccc(S(=O)(=O)Nc3cc(C)on3)cc2)=N1 (stereo unspecified)
a: 0.47

q: Please indicate log10 of GI50 recorded for CC1=C(C(=O)Nc2cccc([N+](=O)[O-])c2)C(c2ccc(O)cc2O)NC(N/N=C/c2ccco2)=N1 (stereo unspecified)
a: 0.46

q: Please indicate log10 of GI50 recorded for CC1=NN(C2=NC(C)=C(C(=O)Nc3cccc([N+](=O)[O-])c3)C(c3ccc(O)cc3O)N2)C(=O)/C1=C/c1ccco1 (stereo unspecified)
a: 1.20

###

System: HCT-116
Experiment: Growth inhibition of human HCT116 cells after 2 days by sulforhodamine B assay
Type: functional
Settings: HCT-116, 48 h
Hi! Could you tag entries with GI50 below 20 µM as label 1, and those at or above as label 0? Much appreciated.

Solved cases (5 shown):
CC1=C(C(=O)Nc2cccc([N+](=O)[O-])c2)C(c2ccc(O)cc2O)NC(NCc2ccccc2)=N1 (stereo not drawn)	label 0
COc1cccc2c1C(=O)c1c(O)c3c(c(O)c1C2=O)C[C@@](O)(C(=O)CO)C[C@@H]3O[C@H]1C[C@H](N)[C@H](O)[C@H](C)O1	label 1
CC1=C(C(=O)Nc2ccc(C)cc2)C(c2ccc(O)cc2O)NC(SCc2ccccc2)=N1 (stereo not drawn)	label 1
CC1=C(C(=O)Nc2cccc([N+](=O)[O-])c2)C(c2ccc(O)cc2O)NC(NN)=N1 (stereo not drawn)	label 0
CC1=C(C(=O)Nc2cccc([N+](=O)[O-])c2)C(c2ccc(O)cc2O)NC(N/N=C/c2ccco2)=N1 (stereo not drawn)	label 1

Turning now to a further record.
q: Could you please tell me whether GI50 recorded for CC1=C(C(=O)Nc2cccc([N+](=O)[O-])c2)C(c2ccc(O)cc2O)NC(SCc2ccccc2)=N1 (stereo not drawn) is less than 20 µM?
a: label 0

###

This listing pairs compounds with measured log10 of GI50.
Tested on: A-431
Test: Growth inhibition of human A431 cells after 2 days by sulforhodamine B assay
Assay type: functional
Details: A-431, 48 h
All values: base-10 log of GI50 in µM.

Worked set:
CC1=C(C(=O)Nc2cccc([N+](=O)[O-])c2)C(c2ccc(O)cc2O)NC(NN2C(=O)/C(=C\c3ccco3)SC2=S)=N1 (stereo not given)	1.46
Cc1ccc(NC(=O)c2c(C)nc(S(=O)(=O)Cc3ccccc3)nc2-c2ccc(O)cc2O)cc1	1.51

q: Please indicate log10 of GI50 recorded for CC1=C(C(=O)Nc2cccc([N+](=O)[O-])c2)C(c2ccc(O)cc2O)NC(NN2C(=O)/C(=C\c3ccccc3)SC2=S)=N1 (stereo not given)
a: 1.39

q: Please indicate log10 of GI50 recorded for CC1=C(C(=O)Nc2cccc([N+](=O)[O-])c2)C(c2ccc(O)cc2O)NC(Nc2ccc(S(=O)(=O)Nc3ncccn3)cc2)=N1 (stereo not given)
a: 1.84

q: Please indicate log10 of GI50 recorded for CC1=C(C(=O)Nc2cccc([N+](=O)[O-])c2)C(c2ccc(O)cc2O)NC(N/N=C/c2cccs2)=N1 (stereo not given)
a: 1.28

q: Please indicate log10 of GI50 recorded for CC1=C(C(=O)Nc2cccc([N+](=O)[O-])c2)C(c2ccc(O)cc2O)NC(NN)=N1 (stereo not given)
a: 1.39

q: Please indicate log10 of GI50 recorded for CC1=C(C(=O)Nc2cccc([N+](=O)[O-])c2)C(c2ccc(O)cc2O)NC(NN2C(=O)/C(=C\c3cccs3)SC2=S)=N1 (stereo not given)
a: 0.44

q: Please indicate log10 of GI50 recorded for CC1=NN(C2=NC(C)=C(C(=O)Nc3cccc([N+](=O)[O-])c3)C(c3ccc(O)cc3O)N2)C(=O)/C1=C/c1cccs1 (stereo not given)
a: 1.57

q: Please indicate log10 of GI50 recorded for CC1=C(C(=O)Nc2ccc(C)cc2)C(c2ccc(O)cc2O)NC(Nc2ccc([N+](=O)[O-])cc2Cl)=N1 (stereo not given)
a: 1.50

q: Please indicate log10 of GI50 recorded for `COc1cccc2c1C(=O)c1c(O)c3c(c(O)c1C2=O)C[C@@](O)(C(=O)CO)C[C@@H]3O[C@H]1C[C@H](N)[C@H](O)[C@H](C)O1`
a: -0.74

###

This listing pairs compounds with measured GI50.
System: HCT-116
Test: Growth inhibition of human HCT116 cells after 2 days by sulforhodamine B assay
Type: functional
Conditions: HCT-116, 48 h
# number only, unit µM dropped from output

CC1=C(C(=O)Nc2cccc([N+](=O)[O-])c2)C(c2ccc(O)cc2O)NC(N/N=C/c2cccs2)=N1 (configuration not stated)	38.2
Cc1ccc(NC(=O)c2c(C)nc(S(=O)(=O)Cc3ccccc3)nc2-c2ccc(O)cc2O)cc1	23.4
CC1=C(C(=O)Nc2cccc([N+](=O)[O-])c2)C(c2ccc(O)cc2O)NC(NN2C(=O)/C(=C\c3cccs3)SC2=S)=N1 (configuration not stated)	4.5

q: Please indicate GI50 recorded for CC1=C(C(=O)Nc2cccc([N+](=O)[O-])c2)C(c2ccc(O)cc2O)NC(Nc2ccc(S(=O)(=O)Nc3ncccn3)cc2)=N1 (configuration not stated)
a: 77.5

q: Please indicate GI50 recorded for CC1=C(C(=O)Nc2ccc(C)cc2)C(c2ccc(O)cc2O)NC(NCc2ccccc2)=N1 (configuration not stated)
a: 66.7

q: Please indicate GI50 recorded for CC1=C(C(=O)Nc2cccc([N+](=O)[O-])c2)C(c2ccc(O)cc2O)NC(Nc2ccc(S(=O)(=O)Nc3nc(C)cc(C)n3)cc2)=N1 (configuration not stated)
a: 8.99
